# testDetails: cAMP Responsive Elements (CRE) small molecule agonists, cell-based qHTS assay: qHTS cell viability counter screen (AID 2060914);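 also: viability read after 3 h of compound exposure; % is scaled to controls: 0 for no effect and ±100 for the full control effect; nearly all actives have a fitted effect of over 50% in size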
# experimentalParameters: CRE-bla HEK293T viability, CellTiter-Glo luminescence, 5 h; series mostly up to 92.4 µM
Records with an inconclusive call do not appear. Activity calls are given as the source filed them. Calls follow the shape of the dose curve; as a rule, active = well fitted cell-killing curve with a large enough effect in the repeat runs; inconclusive = weak or mixed curves, or effect the other way; inactive = flat fitted curve, though single readings scatter.
reportedMetric: activity change, negative = cytotoxicity

Known activity change, negative = cytotoxicity results, listed for orientation:
compound	activity change, negative = cytotoxicity
CCCCOC(=O)CO	inactive
C[C@]12CCC(=O)C=C1[C@@H]1C[C@@H]1[C@H]1[C@@H]3[C@@H]4C[C@@H]4[C@@]4(CCC(=O)O4)[C@@]3(C)CC[C@@H]12	inactive
CC(C)C(=O)Nc1ccc([N+](=O)[O-])c(C(F)(F)F)c1	inactive
O=C(OCC(O)CO)c1ccccc1Nc1ccnc2cc(Cl)ccc12 (stereo unspecified)	inactive
CC[N+](CC)(CC)CCOc1cccc(OCC[N+](CC)(CC)CC)c1OCC[N+](CC)(CC)CC	inactive
O=C(O)CNC(=O)c1ccc(CO)o1	inactive
N#Cc1cc2ccccc2c2ccccc12	inactive
CCCCCCCCCCCCCCCCC(=O)O	inactive

The reported activity change, negative = cytotoxicity of the compound CC(=O)Nc1ccc(S(=O)(=O)Nc2cc(C)on2)cc1 was inactive

The reported activity change, negative = cytotoxicity of the compound CCCCOCCOC(=O)COc1nc(Cl)c(Cl)cc1Cl was inactive

The reported activity change, negative = cytotoxicity of the compound CC(=O)OCC1=C(C(=O)O)N2C(=O)[C@@H](NC(=O)CSc3ccncc3)[C@H]2SC1 was inactive

====

# testDetails: cAMP Responsive Elements (CRE) small molecule agonists, cell-based qHTS assay: qHTS cell viability counter screen (AID 2060914);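 also: viability read after 3 h of compound exposure; % is scaled to controls: 0 for no effect and ±100 for the full control effect; nearly all actives have a fitted effect of over 50% in size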
# experimentalParameters: CRE-bla HEK293T viability, CellTiter-Glo luminescence, 5 h; series mostly up to 92.4 µM
Records with an inconclusive call do not appear. Active and inactive are the calls of the source. The call rests on the fitted dose curve; in most records, active means well fitted cell-killing curve with a large enough effect in the repeat runs; inconclusive means weak or mixed curves, or effect the other way; inactive means flat fitted curve, though single readings scatter.
reportedMetric: activity change, negative = cytotoxicity

Known activity change, negative = cytotoxicity results, listed for orientation:
compound	valueReported
COc1ccc(CN(CCN(C)C)c2ncccn2)cc1	inactive
CCCCCCOC(C)=O	inactive
Cc1cc(Br)ccc1NC(=O)CCl	inactive
CCC(Cl)CC(Cl)C(Cl)C(Cl)C(Cl)C(C)Cl (stereo not drawn)	-0.221% [at 18.9 µM] (inactive)
CC(C)=CCC/C(C)=C/CC/C(C)=C/CCC(=O)OC/C=C(\C)CCC=C(C)C	inactive

The reported activity change, negative = cytotoxicity of the compound CC1=CC(=C(c2ccc(N)cc2)c2ccc(N)cc2)C=CC1=N was -0.199% [at 8.39 µM] (inactive)

The reported activity change, negative = cytotoxicity of the compound ON=C1CCCCC1 was inactive

The reported activity change, negative = cytotoxicity of the compound CC1(C)OC[C@@H](COC(=O)CCc2ccc(OC[C@@H](O)CNCCNC(=O)N3CCOCC3)cc2)O1 was inactive

====

# testDetails: cAMP Responsive Elements (CRE) small molecule agonists, cell-based qHTS assay: qHTS cell viability counter screen (AID 2060914);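 also: viability read after 3 h of compound exposure; % is scaled to controls: 0 for no effect and ±100 for the full control effect; nearly all actives have a fitted effect of over 50% in size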
# experimentalParameters: CRE-bla HEK293T viability, CellTiter-Glo luminescence, 5 h; series mostly up to 92.4 µM
# Source text: National Center for Advancing Translational Sciences [NCATS] Division of Preclinical Innovation [DPI] U.S. Environmental Protection Agency [EPA] National Institutes of Environmental Health Sciences [NIEHS] National Toxicology Program [NTP] U.S. Food and Drug Administration [FDA] CREB (cyclic-AMP Responsive Element Binding Protein) is a cellular transcription factor. […] The activation of the report gene under culture conditions can be detected by fluorescence intensity. […]
Results filed as inconclusive are left out. The source made the active and inactive calls. Calls come from the whole dose curve; as a rule, active = well fitted cell-killing curve with a large enough effect in the repeat runs; inconclusive = weak or mixed curves, or effect the other way; inactive = flat fitted curve, though single readings scatter.
reportedMetric: activity change, negative = cytotoxicity

compound	activity change, negative = cytotoxicity
O=[N+]([O-])c1ccc(O)cc1	inactive
Cc1ccc(N)cc1[N+](=O)[O-]	inactive
CCOC(=O)c1ccccc1OC	inactive
O=C1CCCCCN1	inactive
C1OCOCO1	inactive

The reported activity change, negative = cytotoxicity of the compound Cc1ccc([N+](=O)[O-])cc1S(=O)(=O)O was inactive
